Target: human GLP-1 receptor (Homo sapiens, UniProt P43220)
Construct: expressed in transfected cells
Sequence (P43220 24-463): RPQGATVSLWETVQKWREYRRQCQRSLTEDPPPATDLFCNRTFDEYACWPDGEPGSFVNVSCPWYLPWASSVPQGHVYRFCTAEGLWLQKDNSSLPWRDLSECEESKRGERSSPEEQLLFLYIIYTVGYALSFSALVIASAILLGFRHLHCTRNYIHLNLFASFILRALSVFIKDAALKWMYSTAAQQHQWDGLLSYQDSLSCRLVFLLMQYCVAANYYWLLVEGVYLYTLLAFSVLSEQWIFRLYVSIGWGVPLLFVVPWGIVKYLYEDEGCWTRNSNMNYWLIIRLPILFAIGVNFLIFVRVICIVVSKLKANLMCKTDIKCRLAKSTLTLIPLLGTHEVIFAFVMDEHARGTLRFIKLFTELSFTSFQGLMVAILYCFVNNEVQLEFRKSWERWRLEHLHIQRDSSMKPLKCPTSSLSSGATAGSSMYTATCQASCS
Assay: GLP-1R cAMP Assay (HitHunter cAMP accumulation)
Assay type: cell-based
Settings: cAMP accumulation, CHO cells stably overexpressing human GLP-1 receptor, 30 min treatment; read-out: EC50
Experimental: cAMP accumulation was measured in Chinese hamster ovary (CHO) cells stably overexpressing the human GLP-1 receptor using the HitHunter cAMP Assay for Small Molecules Kit (Eurofins). Briefly, cells were grown in Ham's F12 Nutrient Mix with 10% FBS, and lifted with Cell Dissociation Buffer, Enzyme free, PBS based (ThermoFisher). […] After overnight incubation, luminescence was measured using a Perkin Elmer Envision plate reader. Dose response curves were analyzed using GraphPad Prism 9.0. […]
pEC50: −log10 of the molar value.

- Item smiles: "O=C(O)c1ccc2nc(CN3CC(Cc4ccnc(COc5ccc(Cl)cc5Cl)c4)C3)n(C[C@@H]3CCO3)c2c1"
  pEC50: "> 7.30"
- Item smiles: "O=C(O)c1ccc2nc(CN3CC=C(c4cccc(COc5ccc(Cl)cc5Cl)n4)C3)n(C[C@@H]3CCO3)c2c1"
  pEC50: "> 7.30"
- Item smiles: "N#Cc1ccc(OCc2cccc([C@@H]3CCN(Cc4nc5c(F)cc(C(=O)O)cc5n4C[C@@H]4CCO4)C3)c2)c(F)c1"
  pEC50: "> 7.30"
